# ASSAY EXPLANATION: Half life in cynomolgus monkey at 0.5 mg/kg, iv or 2 mg/kg, po
# Type: ADME, organism-based, Macaca fascicularis
# ASSAY CONDITIONS: in vivo
ENDPOINT NAME: half-life (h)
Form entry: value (h) — number only.

Please look up its half-life: O=C(Nc1ccc(C[C@@H]2CC[C@H]([C@H](O)c3ccccc3)N2)cc1)[C@@H]1CCc2nccc(=O)n21
7

----------
For each record, write down the corresponding half-life.
# ASSAY EXPLANATION: Half life in dog at 0.5 mg/kg, iv or 2 mg/kg, po
# Type: ADME, organism-based, Canis lupus familiaris
# ASSAY CONDITIONS: in vivo
// units = h; emit number, no label

Request the reported half-life associated with C[C@@H](C(=O)Nc1ccc(C[C@@H]2CC[C@H]([C@H](O)c3ccccc3)N2)cc1)n1ncccc1=O
9

And for O=C(Nc1ccc(C[C@@H]2CC[C@H]([C@H](O)c3ccccc3)N2)cc1)[C@@H]1CCc2cccc(=O)n21 ?
6

And O=C(Cn1ncccc1=O)Nc1ccc(C[C@@H]2CC[C@H]([C@H](O)c3ccccc3)N2)cc1 ?
8

What do we get for O=C(Nc1ccc(C[C@@H]2CC[C@H]([C@H](O)c3ccccc3)N2)cc1)[C@@H]1CCc2nccc(=O)n21 [VIBEGRON] ?
13

----------
# ASSAY EXPLANATION: Drug recovery in bile duct cannulated rat feces at 10 mg/kg, po measured over 48 hrs
# Assay type: ADME, organism-based
# ASSAY CONDITIONS: faeces, read-out: Drug recovery
ENDPOINT NAME: dose excreted at 48 h (%)
Provide the reading as a plain figure in %.

Look at this compound and give its reported dose excreted at 48 h. O=C(Nc1ccc(C[C@@H]2CC[C@H]([C@H](O)c3ccccc3)N2)cc1)[C@@H]1CCc2nccc(=O)n21
19

----------
# SYSTEM: Cytochrome P450 2C19 (Homo sapiens)
# Sequence (P33261 whole entry): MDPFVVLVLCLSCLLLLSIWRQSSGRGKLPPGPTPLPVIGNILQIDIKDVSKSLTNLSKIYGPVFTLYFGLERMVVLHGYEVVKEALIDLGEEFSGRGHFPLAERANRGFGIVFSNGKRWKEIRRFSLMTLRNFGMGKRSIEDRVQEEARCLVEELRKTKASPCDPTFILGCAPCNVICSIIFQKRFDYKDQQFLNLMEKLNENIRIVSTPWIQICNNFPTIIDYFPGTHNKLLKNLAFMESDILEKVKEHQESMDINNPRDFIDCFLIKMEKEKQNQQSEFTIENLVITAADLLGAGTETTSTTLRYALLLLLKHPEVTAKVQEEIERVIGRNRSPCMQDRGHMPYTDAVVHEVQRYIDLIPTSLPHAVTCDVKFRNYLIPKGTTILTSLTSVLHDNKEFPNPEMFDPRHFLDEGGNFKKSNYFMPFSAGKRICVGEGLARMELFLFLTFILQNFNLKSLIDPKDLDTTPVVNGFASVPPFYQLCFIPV
ENDPOINT NAME: IC50

May I ask what IC50 has been recorded for O=C(Nc1ccc(C[C@@H]2CC[C@H]([C@H](O)c3ccccc3)N2)cc1)[C@@H]1CCc2nccc(=O)n21 [VIBEGRON] ?
> 100 µM

----------
# SYSTEM: Beta-3 adrenergic receptor (Homo sapiens, UniProt P13945)
# Sequence (P13945 whole entry, looked up): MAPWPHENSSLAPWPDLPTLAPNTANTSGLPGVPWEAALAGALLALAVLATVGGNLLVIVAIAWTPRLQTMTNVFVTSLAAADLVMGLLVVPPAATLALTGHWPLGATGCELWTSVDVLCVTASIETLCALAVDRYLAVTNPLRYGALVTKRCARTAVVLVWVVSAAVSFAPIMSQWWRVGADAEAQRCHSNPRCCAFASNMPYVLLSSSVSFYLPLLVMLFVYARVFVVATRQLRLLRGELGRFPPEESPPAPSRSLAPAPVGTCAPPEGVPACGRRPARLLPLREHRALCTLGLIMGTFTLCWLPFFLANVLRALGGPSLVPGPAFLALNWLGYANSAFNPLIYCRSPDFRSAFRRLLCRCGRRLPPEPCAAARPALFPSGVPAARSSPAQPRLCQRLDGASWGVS
# ASSAY EXPLANATION: Agonist activity at human beta3 adrenergic receptor expressed in CHO cells assessed as accumulation of cAMP after 30 mins by TR-FRET assay relative to (R)-(-)-isoproterenol
# Format: functional, cell-based
ENDPOINT NAME: max activation (%)
Report as a plain number; the unit % is understood.

Using the record for O=C(Nc1ccc(C[C@@H]2CC[C@H]([C@H](O)c3ccccc3)N2)cc1)[C@@H]1CCc2nccc(=O)n21 , report its max activation.
84

Request: O=S(=O)(Nc1ccc(CCNC[C@H](O)c2cccnc2)cc1)c1ccc(-c2nc(-c3ccc(C(F)(F)F)cc3)cs2)cc1
93

Same question for O=C(Cn1cccnc1=O)Nc1ccc(C[C@@H]2CC[C@H]([C@H](O)c3ccccc3)N2)cc1 please.
113

Follow-up item: Nc1nc(CC(=O)Nc2ccc(C[C@@H]3CC[C@H]([C@H](O)c4ccccc4)N3)cc2)cs1
92

Could you do the same for O=C(Cn1ncccc1=O)Nc1ccc(C[C@@H]2CC[C@H]([C@H](O)c3ccccc3)N2)cc1 , please?
105

----------
# ASSAY EXPLANATION: Drug recovery in bile duct cannulated rat at 10 mg/kg, po measured over 48 hrs
# Type: ADME, organism-based
# ASSAY CONDITIONS: in vivo, read-out: Drug recovery
ENDPOINT NAME: dose excreted at 48 h (%)
Reply numerically in %, unit not repeated.

I have this molecule here, O=C(Nc1ccc(C[C@@H]2CC[C@H]([C@H](O)c3ccccc3)N2)cc1)[C@@H]1CCc2nccc(=O)n21 , and I need its recorded dose excreted at 48 h.
87

----------
# SYSTEM: Beta-3 adrenergic receptor (Macaca mulatta)
# Sequence (Q28524 whole entry): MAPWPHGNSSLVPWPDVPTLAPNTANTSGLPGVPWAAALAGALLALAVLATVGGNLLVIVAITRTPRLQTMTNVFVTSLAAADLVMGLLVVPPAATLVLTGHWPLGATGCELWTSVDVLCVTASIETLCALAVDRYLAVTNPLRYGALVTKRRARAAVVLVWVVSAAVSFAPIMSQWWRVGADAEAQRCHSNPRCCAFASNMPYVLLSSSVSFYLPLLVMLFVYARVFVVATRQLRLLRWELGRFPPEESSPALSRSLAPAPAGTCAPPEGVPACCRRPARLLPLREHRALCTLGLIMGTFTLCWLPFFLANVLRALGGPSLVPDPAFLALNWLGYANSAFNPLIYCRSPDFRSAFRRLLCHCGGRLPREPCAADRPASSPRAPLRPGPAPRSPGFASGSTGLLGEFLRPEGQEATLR
# ASSAY EXPLANATION: Agonist activity at rhesus monkey beta3 adrenergic receptor expressed in CHO cells assessed as accumulation of cAMP after 30 mins by TR-FRET assay in presence of 40% serum
# Type: functional, cell-based
ENDPOINT NAME: pEC50
Kindly note that pEC50 refers to -log10 of the concentration in mol/L and answer with the value alone.

Lab note: need pEC50 with Beta-3 adrenergic receptor (Macaca mulatta) for entry C[C@@H](C(=O)Nc1ccc(C[C@@H]2CC[C@H]([C@H](O)c3ccccc3)N2)cc1)n1ncccc1=O , please look it up.
7.92

Consider next the molecule O=S(=O)(Nc1ccc(CCNC[C@H](O)c2cccnc2)cc1)c1ccc(-c2nc(-c3ccc(C(F)(F)F)cc3)cs2)cc1 in the same way.
7.77

Next entry: O=C(Nc1ccc(C[C@@H]2CC[C@H]([C@H](O)c3ccccc3)N2)cc1)[C@@H]1CCc2nccc(=O)n21 [VIBEGRON]
8.15

----------
# ASSAY EXPLANATION: Intrinsic clearance in dog liver microsomes
# Type: ADME, Canis lupus familiaris
# ASSAY CONDITIONS: read-out: CLH
ENDPOINT NAME: CLint scaled (mL/min/kg)
Reply with just the number (in mL/min/kg).

// returns reported CLint scaled for input O=C(Cn1ncccc1=O)Nc1ccc(C[C@@H]2CC[C@H]([C@H](O)c3ccccc3)N2)cc1
11

Likewise for C[C@@H](C(=O)Nc1ccc(C[C@@H]2CC[C@H]([C@H](O)c3ccccc3)N2)cc1)n1ncccc1=O ?
34

Here is the next molecule: O=C(Nc1ccc(C[C@@H]2CC[C@H]([C@H](O)c3ccccc3)N2)cc1)[C@@H]1CCc2nccc(=O)n21
13

Now this one: O=C(Nc1ccc(C[C@@H]2CC[C@H]([C@H](O)c3ccccc3)N2)cc1)[C@@H]1CCc2cccc(=O)n21
13

----------
Assign clearance to each entry below.
# ASSAY EXPLANATION: Plasma clearance in dog at 0.5 mg/kg, iv or 2 mg/kg, po
# Format: ADME, organism-based, Canis lupus familiaris
All answers are understood in mL/min/kg, so give the number only.

Which clearance is listed for O=C(Cn1ncccc1=O)Nc1ccc(C[C@@H]2CC[C@H]([C@H](O)c3ccccc3)N2)cc1 ?
7.4

Now consider O=C(Nc1ccc(C[C@@H]2CC[C@H]([C@H](O)c3ccccc3)N2)cc1)[C@@H]1CCc2cccc(=O)n21 .
26

Follow-up item: C[C@@H](C(=O)Nc1ccc(C[C@@H]2CC[C@H]([C@H](O)c3ccccc3)N2)cc1)n1ncccc1=O
23

Here is the next molecule: O=C(Nc1ccc(C[C@@H]2CC[C@H]([C@H](O)c3ccccc3)N2)cc1)[C@@H]1CCc2nccc(=O)n21
15

----------
# ASSAY EXPLANATION: Oral bioavailability in dog at 2 mg/kg
# Type: ADME, organism-based, Canis lupus familiaris
# ASSAY CONDITIONS: in vivo
Quick rule for you: bioavailability at 30% or higher means True, lower means False.

Given O=C(Cn1ncccc1=O)Nc1ccc(C[C@@H]2CC[C@H]([C@H](O)c3ccccc3)N2)cc1 , state whether its bioavailability is at least 30%.
False

Field entry: C[C@@H](C(=O)Nc1ccc(C[C@@H]2CC[C@H]([C@H](O)c3ccccc3)N2)cc1)n1ncccc1=O
True

Proceed to O=C(Nc1ccc(C[C@@H]2CC[C@H]([C@H](O)c3ccccc3)N2)cc1)[C@@H]1CCc2nccc(=O)n21
True

Please answer likewise for O=S(=O)(Nc1ccc(CCNC[C@H](O)c2cccnc2)cc1)c1ccc(-c2nc(-c3ccc(C(F)(F)F)cc3)cs2)cc1
False

Then O=C(Nc1ccc(C[C@@H]2CC[C@H]([C@H](O)c3ccccc3)N2)cc1)[C@@H]1CCc2cccc(=O)n21 ?
True

----------
Record form. Attribute: EC50. Fill in for each entry.
# SYSTEM: Beta-3 adrenergic receptor (Rattus norvegicus)
# Sequence (P26255 whole entry): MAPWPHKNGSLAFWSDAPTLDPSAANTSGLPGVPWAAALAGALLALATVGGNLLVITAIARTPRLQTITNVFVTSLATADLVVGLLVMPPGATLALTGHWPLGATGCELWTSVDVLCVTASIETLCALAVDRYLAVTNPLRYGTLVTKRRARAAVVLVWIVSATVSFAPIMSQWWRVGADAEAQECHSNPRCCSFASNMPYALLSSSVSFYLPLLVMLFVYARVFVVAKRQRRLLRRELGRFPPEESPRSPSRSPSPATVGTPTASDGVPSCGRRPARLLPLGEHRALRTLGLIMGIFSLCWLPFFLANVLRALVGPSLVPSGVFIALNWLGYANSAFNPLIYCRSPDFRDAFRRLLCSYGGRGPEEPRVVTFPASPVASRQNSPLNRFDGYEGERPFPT
# ASSAY EXPLANATION: Agonist activity at rat beta3 adrenergic receptor expressed in CHO cells assessed as accumulation of cAMP after 30 mins by TR-FRET assay
# Format: functional, cell-based
Give just the numeric value; nM need not be written.

Give the reported EC50 for O=S(=O)(Nc1ccc(CCNC[C@H](O)c2cccnc2)cc1)c1ccc(-c2nc(-c3ccc(C(F)(F)F)cc3)cs2)cc1 (system: Beta-3 adrenergic receptor (Rattus norvegicus)).
3400

Please do the same for C[C@@H](C(=O)Nc1ccc(C[C@@H]2CC[C@H]([C@H](O)c3ccccc3)N2)cc1)n1ncccc1=O as well.
531

Try O=C(Cn1ncccc1=O)Nc1ccc(C[C@@H]2CC[C@H]([C@H](O)c3ccccc3)N2)cc1 next.
615

Entry O=C(Nc1ccc(C[C@@H]2CC[C@H]([C@H](O)c3ccccc3)N2)cc1)[C@@H]1CCc2nccc(=O)n21 please
86

----------
# SYSTEM: Beta-3 adrenergic receptor (Canis lupus familiaris, UniProt O02662)
# Sequence (O02662 whole entry): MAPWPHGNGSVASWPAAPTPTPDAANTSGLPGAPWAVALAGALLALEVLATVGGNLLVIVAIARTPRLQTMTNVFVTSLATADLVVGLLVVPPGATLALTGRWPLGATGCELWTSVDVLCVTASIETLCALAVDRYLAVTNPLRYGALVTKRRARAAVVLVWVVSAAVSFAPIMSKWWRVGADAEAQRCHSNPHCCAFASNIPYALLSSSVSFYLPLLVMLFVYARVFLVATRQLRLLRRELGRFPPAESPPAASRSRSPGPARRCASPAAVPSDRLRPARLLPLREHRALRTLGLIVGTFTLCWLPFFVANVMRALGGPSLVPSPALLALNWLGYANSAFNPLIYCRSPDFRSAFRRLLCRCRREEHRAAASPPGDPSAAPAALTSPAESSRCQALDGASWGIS
# ASSAY EXPLANATION: Agonist activity at dog beta3 adrenergic receptor expressed in CHO cells assessed as accumulation of cAMP after 30 mins by TR-FRET assay
Provide the recorded pEC50 for the entries that follow.
// pEC50 is dimensionless: -log10 of concentration (M)

Quick one: pEC50 for O=C(Cn1ncccc1=O)Nc1ccc(C[C@@H]2CC[C@H]([C@H](O)c3ccccc3)N2)cc1 ?
7.33

Record: O=C(Nc1ccc(C[C@@H]2CC[C@H]([C@H](O)c3ccccc3)N2)cc1)[C@@H]1CCc2nccc(=O)n21
7.96

Try the compound O=S(=O)(Nc1ccc(CCNC[C@H](O)c2cccnc2)cc1)c1ccc(-c2nc(-c3ccc(C(F)(F)F)cc3)cs2)cc1
7.60

C[C@@H](C(=O)Nc1ccc(C[C@@H]2CC[C@H]([C@H](O)c3ccccc3)N2)cc1)n1ncccc1=O ?
7.41
